# Test system: pigweed (Amaranthus retroflexus)
# protocol-description: Test A pre-/postemergence: pigweed
# Format: in vivo
# protocol-conditions: Postemergence, 125 g ai/ha; 0 to 100 scale, 0 is no effect, 100 is complete control

>  <cpd-smiles>
CCCCOc1nn(-c2ccc(C(F)(F)F)cc2)nc1Cc1ccnc(C(F)(F)F)c1

>  <Plant response rating, Pigweed>
40

$$$$
>  <cpd-smiles>
CCc1nn(-c2ccc(C(F)(F)F)cc2)nc1Oc1ccnc(C(F)(F)F)c1

>  <Plant response rating, Pigweed>
100

$$$$
>  <cpd-smiles>
COc1nn(-c2ccc(C(F)(F)F)cc2)nc1Cc1ccnc(C(F)F)c1

>  <Plant response rating, Pigweed>
100

$$$$
>  <cpd-smiles>
Cc1nn(-c2ccnc(Cl)c2)nc1Cc1ccnc(C(F)(F)F)c1

>  <Plant response rating, Pigweed>
100

$$$$
>  <cpd-smiles>
CC(C)Oc1nn(-c2ccc(C(F)(F)F)cc2)nc1Cc1ccnc(C(F)(F)F)c1

>  <Plant response rating, Pigweed>
40

$$$$

---

# System: velvetleaf (Abutilon theophrasti)
# protocol-description: Test F pre-/postemergence: velvetleaf
# Type: in vivo
# protocol-conditions: Preemergence; 250 g ai/ha; scale 0 to 100
outcome-measure: Plant response rating, Velvetleaf

>  <cpd-smiles>
CCc1nn(-c2ccc(F)c(F)c2)nc1Oc1ccnc(C(F)(F)F)c1

>  <outcome-measure>
Plant response rating, Velvetleaf

>  <measurement>
50

$$$$
>  <cpd-smiles>
CCCc1nn(-c2ccc(F)c(F)c2)nc1Oc1ccnc(C(F)(F)F)c1

>  <outcome-measure>
Plant response rating, Velvetleaf

>  <measurement>
100

$$$$
>  <cpd-smiles>
Cc1nn(-c2ccc(F)cc2F)nc1Oc1ccnc(C(F)(F)F)c1

>  <outcome-measure>
Plant response rating, Velvetleaf

>  <measurement>
25

$$$$
>  <cpd-smiles>
CCc1nn(-c2ccc(C(F)(F)F)cc2)nc1Oc1ccnc(C(F)(F)F)c1

>  <outcome-measure>
Plant response rating, Velvetleaf

>  <measurement>
100

$$$$

---

# Test system: velvetleaf (Abutilon theophrasti)
# protocol-description: Test C pre-/postemergence: velvetleaf
# Type: in vivo
# protocol-conditions: Postemergence, 250 g ai/ha; scale 0 to 100
outcome-measure: Plant response rating, Velvetleaf

>  <cpd-smiles>
Cc1nn(-c2ccc(F)c(C(F)(F)F)c2)nc1Cc1ccnc(C(F)(F)F)c1

>  <target-of-assay>
velvetleaf (Abutilon theophrasti)

>  <measurement>
80

$$$$
>  <cpd-smiles>
FC(F)Oc1nn(-c2ccc(C(F)(F)F)cc2)nc1Cc1ccnc(C(F)(F)F)c1

>  <target-of-assay>
velvetleaf (Abutilon theophrasti)

>  <measurement>
85

$$$$
>  <cpd-smiles>
CCOc1nn(-c2ccc(C(F)(F)F)cc2)nc1Cc1ccnc(C(F)(F)F)c1

>  <target-of-assay>
velvetleaf (Abutilon theophrasti)

>  <measurement>
40

$$$$
>  <cpd-smiles>
FC(F)(F)COc1nn(-c2ccc(C(F)(F)F)cc2)nc1Cc1ccnc(C(F)(F)F)c1

>  <target-of-assay>
velvetleaf (Abutilon theophrasti)

>  <measurement>
90

$$$$

---

# Tested on: morningglory (Ipomoea spp.)
# protocol-description: Test A pre-/postemergence: morningglory
# Assay type: in vivo
# protocol-conditions: Preemergence, 500 g ai/ha; 0 to 100 scale, 0 is no effect, 100 is complete control
As shown below, each of these compounds has a reported Plant response rating, Morningglory value.

>  <compound>
Cc1nn(-c2ccc(C(F)(F)F)cc2)nc1Oc1cccc(C(F)(F)F)c1

>  <Plant response rating, Morningglory>
30

$$$$
>  <compound>
COc1nn(-c2ccc(C(F)(F)F)cc2)nc1Cn1nc(C(F)(F)F)cc1C(F)(F)F

>  <Plant response rating, Morningglory>
0

$$$$
>  <compound>
COc1nn(-c2ccc(C(F)(F)F)cc2)nc1C(F)c1ccnc(C(F)(F)F)c1 (centres unmarked)

>  <Plant response rating, Morningglory>
60

$$$$
>  <compound>
Cc1nn(-c2ccc(C(F)(F)F)cc2)nc1Cn1cnc(C(F)(F)F)c1Cl

>  <Plant response rating, Morningglory>
0

$$$$
>  <compound>
Cc1nn(-c2ccc(C(F)(F)F)cc2)nc1Cn1c(Cl)nc(C(F)(F)F)c1Cl

>  <Plant response rating, Morningglory>
0

$$$$
>  <compound>
Cc1nn(-c2ccc(C(F)(F)F)cn2)nc1Oc1ccnc(C(F)(F)F)c1

>  <Plant response rating, Morningglory>
80

$$$$
>  <compound>
Cc1nn(-c2ccc(F)c(F)c2)nc1Cc1ccnc(C(F)(F)F)c1

>  <Plant response rating, Morningglory>
80

$$$$
>  <compound>
COc1nn(-c2ccc(F)cc2)nc1C(=O)c1ccnc(C(F)(F)F)c1

>  <Plant response rating, Morningglory>
0

$$$$

The reported measurements were obtained from patent US9302999B2.
